system.name: T1, human ferroportin (SLC40A1) fused in frame with GFP, stably expressed in HEK293 cells (human, UniProt Q9NP59 1-571)
T1 sequence (looked up): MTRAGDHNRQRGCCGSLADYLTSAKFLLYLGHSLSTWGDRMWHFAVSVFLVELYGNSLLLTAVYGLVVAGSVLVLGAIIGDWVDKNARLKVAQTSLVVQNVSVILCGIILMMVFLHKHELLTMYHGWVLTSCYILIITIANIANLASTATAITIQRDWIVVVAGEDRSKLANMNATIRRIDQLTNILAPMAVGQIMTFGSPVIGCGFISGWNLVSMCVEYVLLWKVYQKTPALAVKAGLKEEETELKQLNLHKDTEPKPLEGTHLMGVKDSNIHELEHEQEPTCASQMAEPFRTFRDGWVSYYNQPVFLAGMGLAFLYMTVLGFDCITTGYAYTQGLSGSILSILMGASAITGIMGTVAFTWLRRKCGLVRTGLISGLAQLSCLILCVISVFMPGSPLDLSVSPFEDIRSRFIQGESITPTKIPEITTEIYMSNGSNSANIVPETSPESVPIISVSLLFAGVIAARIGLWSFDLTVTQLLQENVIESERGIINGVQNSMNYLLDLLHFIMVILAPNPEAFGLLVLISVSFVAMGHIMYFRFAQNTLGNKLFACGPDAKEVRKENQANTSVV
test.details: cell-based or functional assay
Starred links: 1 amine or outer side, 2 acyl side, 3 side chain; linkers in the order of their positions; H or OH if unused. Positions of bridges follow the written chain, without caps; N, C: chain ends. Non-standard residues stand in square brackets, D forms with d. Groups on a side chain read outwards from the residue. *: point of attachment. Glu(OMe) = COC(=O)CC[C@H](N[*:1])C(=O)[*:2]; C18 diacid = O=C(O)CCCCCCCCCCCCCCCCC(=O)*; Dip = N[C@H](C(=O)O)C(c1ccccc1)c1ccccc1; Palmitoyl = CCCCCCCCCCCCCCCC(=O)*; β3hF = N[C@H](CC(=O)O)Cc1ccccc1; Isovaleryl = CC(C)CC(=O)*; Dap = NC[C@H](N)C(=O)O; AEEA = NCCOCCOCC(=O)O; Ahx = NCCCCCC(=O)O
measured.endpoint: IC50: FPN internalisation (nM)
Provide the reading as a plain figure in nM.

Consider the reported IC50: FPN internalisation for these binders:
XXTHXPCIXXXC ([Isovaleric Acid]-[Glu(OMe)]-T-H-[Dpa]-P-C-I-[Lys(PEG12_Dap_C18_Diacid)]-[bhPhe]-[(D)Lys]-C-NH2) [Seq. No. 520]: 19.9
Isovaleryl-ETH[Dip]PCI[dK][β3hF]K([Ahx-Palmitoyl])[dR]C-NH2 (disulfide 6-12 (inferred)) [Seq. No. 475]: 42.8
Isovaleryl-ETHLPCI[dK][β3hF]K([Ahx-Palmitoyl])[dK]C-NH2 (not fully specified (bridges); cysteine pairing not given here) [Seq. No. 570]: 12.7
Isovaleryl-[Glu(OMe)]TH[Dip]PCIK([AEEA-AEEA-Dap-C18 diacid])[β3hF][dR]C-NH2 (disulfide 6-11 (inferred)) [Seq. No. 535]: 21

QUERY: Query: IC50: FPN internalisation; subject: XXTXXPCIXXXC ([Isovaleric Acid]-[Glu(OMe)]-T-[4Pal]-[Dpa]-P-C-I-[Lys(1PEG2_1PEG2_Dap_C18_Diacid)]-[bhPhe]-[(D)Lys]-C-NH2) [Seq. No. 499]
RESULT: 14.3
